Measured Ki accompanies every entry in the list below.
molecular target: GST-Bcl-XL (Homo sapiens, UniProt Q07817); assay: TR-FRET binding assay, GST-Bcl-XL with F-Bak peptide probe; details: TR-FRET Binding Affinity, GST-Bcl-XL, F-Bak peptide probe
Sequence (Q07817 whole entry): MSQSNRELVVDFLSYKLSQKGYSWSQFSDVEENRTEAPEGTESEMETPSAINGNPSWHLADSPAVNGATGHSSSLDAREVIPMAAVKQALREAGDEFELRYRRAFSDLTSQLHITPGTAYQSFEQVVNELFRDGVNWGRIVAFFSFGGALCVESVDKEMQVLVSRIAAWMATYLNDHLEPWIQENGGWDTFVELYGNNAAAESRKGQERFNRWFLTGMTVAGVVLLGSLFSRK
Just the number please, in nM, no unit attached.

Examples from the recorded data:
>>> result_number("CN1CCN(c2ccc(S(=O)(=O)NC(=O)c3ccc(N4CCN(CC5=C(c6ccc(Cl)cc6)CC(C)(C)CC5)CC4)cc3Oc3ccc4[nH]ccc4c3)cc2[N+](=O)[O-])CC1 [Example 107]")
130
>>> result_number("COCCOCCNc1ccc(S(=O)(=O)NC(=O)c2ccc(N3CCN(CC4=C(c5ccc(Cl)cc5)CC(C)(C)CC4)CC3)cc2Oc2cccc3[nH]ccc23)cc1[N+](=O)[O-] [Example 293]")
260

The record that follows has no Ki shown yet.
Q) What value of Ki has been recorded for this entry: CN(C)CCCCNc1ccc(S(=O)(=O)NC(=O)c2ccc(N3CCN(Cc4ccccc4-c4ccc(Cl)cc4)CC3)cc2Oc2ccccc2)cc1[N+](=O)[O-] [Example 156]
A) 6.16

====

molecular target: GST-Bcl-2 (Homo sapiens); experiment: TR-FRET binding assay, GST-Bcl-2 with F-Bak peptide probe; conditions: TR-FRET Binding Affinity, GST-Bcl-2, F-Bak peptide probe
readout-type: Ki

>>> result("CC1(C)CCC(CN2CCN(c3ccc(C(=O)NS(=O)(=O)c4ccc(NCCC(F)(F)F)c([N+](=O)[O-])c4)c(Oc4ccc5[nH]ccc5c4)c3)CC2)=C(c2ccc(Cl)cc2)C1")
"1.48 nM"

Q) What value of Ki has been reported for the following molecule? CC(c1ccccc1-c1ccc(Cl)cc1)N1CCN(c2ccc(C(=O)NS(=O)(=O)c3ccc(NCC4CCOCC4)c([N+](=O)[O-])c3)c(Oc3ccc4[nH]ccc4c3)c2)CC1 (centres unmarked)
A) 0.077 nM

Q) Tell me the measured Ki of `O=C(NS(=O)(=O)c1ccc(NCCCN2CCOCC2)cc1)c1ccc(N2CCN(Cc3ccccc3-c3ccc(Cl)cc3)CC2)cc1Oc1ccccc1` , please.
A) 113 nM

Q) Given the molecule `CN(C)CC#Cc1ccc(-c2ccc(Cl)cc2)c(CN2CCN(c3ccc(C(=O)NS(=O)(=O)c4ccc(NCC5CCOCC5)c([N+](=O)[O-])c4)c(Oc4cccc5[nH]ccc45)c3)CC2)c1` , what is its reported Ki?
A) 0.267 nM

Q) // lookup Ki for CC1(C)CCC(CN2CCN(c3ccc(C(=O)NS(=O)(=O)c4ccc(NCC5CN(CC#N)CCO5)c([N+](=O)[O-])c4)c(Oc4cccc5[nH]cnc45)c3)CC2)=C(c2ccc(Cl)cc2)C1 (centres unmarked)
A) < 0.01 nM

Q) So what does the record say about Ki for `CC1(C)CCC(CN2CCN(c3ccc(C(=O)NS(=O)(=O)c4ccc(NCCOC(F)(F)F)c([N+](=O)[O-])c4)c(Oc4cccc5[nH]ccc45)c3)CC2)=C(c2ccc(Cl)cc2)C1` ?
A) 0.598 nM

Q) Bench note: what Ki did `CC1(C)CCC(CN2CCN(c3ccc(C(=O)NS(=O)(=O)c4ccc(NCC5CCOCC5)c(S(=O)(=O)C(F)(F)F)c4)c(Oc4cccc5[nH]ccc45)c3)CC2)=C(c2ccc(Cl)cc2)C1` show?
A) 1.48 nM

Q) Entry under review: `CC1(C)CCC(CN2CCN(c3ccc(C(=O)NS(=O)(=O)c4ccc(NN5CCCCC5)c([N+](=O)[O-])c4)c(Oc4ccc5[nH]ccc5c4)c3)CC2)=C(c2ccc(Cl)cc2)C1` . Reported Ki?
A) 1.55 nM

Q) Quick one: Ki for `Cc1ccc(S(=O)(=O)NC(=O)c2ccc(N3CCN(Cc4ccccc4-c4ccc(Cl)cc4)CC3)cc2Oc2ccccc2)cc1` ?
A) 52.2 nM

Q) What Ki value was documented for this molecule, `CN(C)CCCCNc1ccc(S(=O)(=O)NC(=O)c2ccc(N3CCN(Cc4ccccc4-c4ccc(Cl)cc4)CC3)cc2Oc2ccccc2)cc1[N+](=O)[O-]` ?
A) 0.116 nM

Q) Entry `COCCCNc1ccc(S(=O)(=O)NC(=O)c2ccc(N3CCN(CC4=C(c5ccc(Cl)cc5)CC(C)(C)CC4)CC3)cc2Oc2cccc3[nH]ccc23)cc1[N+](=O)[O-]` has what Ki?
A) 1.47 nM

====

biological target: GST-Bcl-XL (Homo sapiens); assay: TR-FRET binding assay, GST-Bcl-XL with F-Bak peptide probe; conditions: TR-FRET Binding Affinity, GST-Bcl-XL, F-Bak peptide probe
pKi: −log10 of the molar value.
Each entry below lists one item and its recorded pKi value.

>>> result("CCN(CC)C1CCC(Nc2ccc(S(=O)(=O)NC(=O)c3ccc(N4CCN(CC5=C(c6ccc(Cl)cc6)CC(C)(C)CC5)CC4)cc3Oc3ccc4[nH]ccc4c3)cc2[N+](=O)[O-])CC1 (centres unmarked) [Example 201]")
7.61
>>> result("CC1(C)CCC(CN2CCN(c3ccc(C(=O)NS(=O)(=O)c4cc(F)c(NCC5CCOCC5)cc4Cl)c(Oc4ccc5[nH]ccc5c4)c3)CC2)=C(c2ccc(Cl)cc2)C1 [Example 379]")
"< 6.18"
>>> result("CC1(C)CCC(CN2CCN(c3ccc(C(=O)NS(=O)(=O)c4ccc(NCC5CCN(C(=O)OCc6ccccc6)CC5)c([N+](=O)[O-])c4)c(Oc4ccc5[nH]ccc5c4)c3)CC2)=C(c2ccc(Cl)cc2)C1 [Example 356]")
"< 6.18"
>>> result("CC1(C)CCC(CN2CCN(c3ccc(C(=O)NS(=O)(=O)c4ccc(NC5CCN(c6nccs6)CC5)c([N+](=O)[O-])c4)c(Oc4ccc5[nH]ccc5c4)c3)CC2)=C(c2ccc(Cl)cc2)C1 [Example 212]")
"< 6.18"

Consider the additional compound presented here.
Q) Look at this compound and give its reported pKi. CC1(C)CCC(CN2CCN(c3ccc(C(=O)NS(=O)(=O)c4ccc(NCC5CCOCC5)c([N+](=O)[O-])c4)c(Oc4cccc5c4CCNC5)c3)CC2)=C(c2ccc(Cl)cc2)C1 [Example 399]
A) < 3.18

====

target: GST-Bcl-XL (Homo sapiens, UniProt Q07817); test: TR-FRET binding assay, GST-Bcl-XL with F-Bak peptide probe; conditions: TR-FRET Binding Affinity
readout-type: Ki
Record the result as number plus unit.

Previously resolved entries follow.
>>> result("CC1(C)CCC(CN2CCN(c3ccc(C(=O)NS(=O)(=O)c4ccc(NC5CCN(C6CC6)CC5)c([N+](=O)[O-])c4)c(Oc4cccc5[nH]cnc45)c3)CC2)=C(c2ccc(Cl)cc2)C1")
"3.6 nM"
>>> result("CC1(C)CCC(CN2CCN(c3ccc(C(=O)NS(=O)(=O)c4ccc(OCC5CCC(C)(O)CC5)c([N+](=O)[O-])c4)c(Oc4cccc5[nH]ncc45)c3)CC2)=C(c2ccc(Cl)cc2)C1 (stereo not drawn) [Example 533]")
"10.4 nM"

# input for lookup
Q) Data request, read-out Ki, for `CC1(C)CCC(CN2CCN(c3ccc(C(=O)NS(=O)(=O)c4ccc(NCC5(F)CCOCC5)c([N+](=O)[O-])c4)c(Oc4cccc5[nH]cnc45)c3)CC2)=C(c2ccc(Cl)cc2)C1`
A) 24.2 nM

====

# Ki annotations
target: GST-Bcl-2 (Homo sapiens, UniProt P10415); test: TR-FRET binding assay, GST-Bcl-2 with F-Bak peptide probe; conditions: TR-FRET Binding Affinity, GST-Bcl-2, F-Bak peptide probe
Sequence (P10415 whole entry): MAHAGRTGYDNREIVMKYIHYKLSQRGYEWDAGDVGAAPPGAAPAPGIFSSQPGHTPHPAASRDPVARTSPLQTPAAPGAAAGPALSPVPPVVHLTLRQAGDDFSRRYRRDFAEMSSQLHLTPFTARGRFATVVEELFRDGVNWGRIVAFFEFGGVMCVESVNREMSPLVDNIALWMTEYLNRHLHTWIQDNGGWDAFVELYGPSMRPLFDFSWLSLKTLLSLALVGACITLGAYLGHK
State just the number; it will be interpreted in nM.

In the examples that follow, each entry is paired with its recorded Ki.
>>> result_number("O=C(NS(=O)(=O)c1ccc(NCC2CCOCC2)c(S(=O)(=O)C(F)(F)F)c1)c1ccc(N2CCN(Cc3ccccc3-c3ccc(Cl)cc3)CC2)cc1Oc1ccc2ccccc2c1")
0.464
>>> result_number("CN1CCC(Nc2ccc(S(=O)(=O)NC(=O)c3ccc(N4CCN(CC5=C(c6ccc(Cl)cc6)CC(C)(C)CC5)CC4)cc3Oc3ccc4c(c3)CCCN4)cc2[N+](=O)[O-])CC1")
6.64
>>> result_number("CC1(C)CCC(CN2CCN(c3ccc(C(=O)NS(=O)(=O)c4ccc(NCCCN5CCOCC5)c(S(=O)(=O)C(F)(F)F)c4)c(Oc4ccc5[nH]ccc5c4)c3)CC2)=C(c2ccc(Cl)cc2)C1")
0.302

Q) I am curious: what Ki value has been reported for CC1(C)CCC(CN2CCN(c3ccc(C(=O)NS(=O)(=O)c4ccc(NC5CCN(C6CCOCC6)CC5)c([N+](=O)[O-])c4)c(Oc4ccc5[nH]ccc5c4)c3)CC2CO)=C(c2ccc(Cl)cc2)C1 (centres unmarked) ?
A) 0.236

====

# Lookup of reported pKi keyed by entry
Target: GST-Bcl-2 (Homo sapiens, UniProt P10415)
Test: TR-FRET binding assay, GST-Bcl-2 with F-Bak peptide probe
Conditions: TR-FRET Binding Affinity, GST-Bcl-2, F-Bak peptide probe
Procedure: Tb-anti-GST antibody was purchased from Invitrogen (Catalog No. PV4216). […] The samples were then mixed on a shaker for 1 minute and incubated for an additional 3 hours at room temperature. […] Fluorescence was measured on the ENVISION plate reader (Perkin Elmer) using a 340/35 nm excitation filter and 520/525 (F-Bak peptide) and 495/510 nm (Tb-labeled […] antibody) emission filters. […]
Recall that pKi is obtained by taking minus log10 of the concentration measured in molar.

>>> result_number("CC1(C)CCC(CN2CCN(c3ccc(C(=O)NS(=O)(=O)c4cnc(OCC5(F)CCOCC5)c(C#N)c4)c(Oc4cccc5[nH]ccc45)c3)CC2)=C(c2ccc(Cl)cc2)C1 [Example 393]")
10.08
>>> result_number("COCCOCCSc1ccc(S(=O)(=O)NC(=O)c2ccc(N3CCN(CC4=C(c5ccc(Cl)cc5)CC(C)(C)CC4)CC3)cc2Oc2cccc3[nH]ccc23)cc1[N+](=O)[O-] [Example 381]")
10.27
>>> result_number("CN(C)CC(=O)N1CCO[C@@H](COc2ncc(S(=O)(=O)NC(=O)c3ccc(N4CCN(CC5=C(c6ccc(Cl)cc6)CC(C)(C)CC5)CC4)cc3Oc3cccc4[nH]ncc34)cc2Cl)C1 [Example 426]")
11.15

Next:
Q) Can you look up the measured pKi of CC1(C)CCC(CN2CCN(c3ccc(C(=O)NS(=O)(=O)c4ccc(NC5CCN(CCCC(F)(F)F)CC5)c([N+](=O)[O-])c4)c(Oc4ccc5[nH]ccc5c4)c3)CC2)=C(c2ccc(Cl)cc2)C1 [Example 216] for me?
A) 9.21
